# Target system: BK potassium channel, cloned hSlo (α-hSlo and β-bSlo) in CHO cells (Homo sapiens, UniProt Q12791)
# Construct: expressed in transfected cells; host or cells: CHO cells, permanently transfected
# Sequence (Q12791 1-1178 isoform Q12791-5): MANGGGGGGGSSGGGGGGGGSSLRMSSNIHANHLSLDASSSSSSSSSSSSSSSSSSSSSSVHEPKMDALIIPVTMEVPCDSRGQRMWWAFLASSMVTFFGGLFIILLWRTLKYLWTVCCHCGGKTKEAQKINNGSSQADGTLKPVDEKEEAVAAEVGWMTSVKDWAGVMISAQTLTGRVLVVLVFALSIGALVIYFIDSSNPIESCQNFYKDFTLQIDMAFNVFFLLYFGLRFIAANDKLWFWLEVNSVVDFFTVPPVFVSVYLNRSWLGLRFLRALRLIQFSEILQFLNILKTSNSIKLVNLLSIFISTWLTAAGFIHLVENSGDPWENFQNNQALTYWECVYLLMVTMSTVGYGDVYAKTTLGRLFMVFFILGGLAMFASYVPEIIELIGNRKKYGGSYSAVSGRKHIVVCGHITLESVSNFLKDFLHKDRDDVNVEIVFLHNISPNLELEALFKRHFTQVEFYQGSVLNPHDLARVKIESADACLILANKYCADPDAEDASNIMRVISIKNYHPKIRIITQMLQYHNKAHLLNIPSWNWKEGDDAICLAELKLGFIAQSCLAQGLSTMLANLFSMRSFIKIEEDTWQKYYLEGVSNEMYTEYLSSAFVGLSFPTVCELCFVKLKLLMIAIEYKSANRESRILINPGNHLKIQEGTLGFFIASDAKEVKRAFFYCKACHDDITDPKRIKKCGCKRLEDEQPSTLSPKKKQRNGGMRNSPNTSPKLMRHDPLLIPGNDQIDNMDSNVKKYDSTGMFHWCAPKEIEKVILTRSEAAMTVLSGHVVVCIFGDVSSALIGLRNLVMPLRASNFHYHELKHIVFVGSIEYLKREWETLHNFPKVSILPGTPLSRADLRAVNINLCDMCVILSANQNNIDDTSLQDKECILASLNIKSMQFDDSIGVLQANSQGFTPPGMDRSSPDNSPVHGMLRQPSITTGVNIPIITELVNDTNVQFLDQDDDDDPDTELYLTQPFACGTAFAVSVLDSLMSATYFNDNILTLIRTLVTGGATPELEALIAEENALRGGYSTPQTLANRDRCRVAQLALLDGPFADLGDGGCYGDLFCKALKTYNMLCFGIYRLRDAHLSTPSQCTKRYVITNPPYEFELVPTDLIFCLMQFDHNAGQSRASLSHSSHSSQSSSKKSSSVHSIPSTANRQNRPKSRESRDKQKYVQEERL
# Sequence (Q28067 2-191 partner limits assumed): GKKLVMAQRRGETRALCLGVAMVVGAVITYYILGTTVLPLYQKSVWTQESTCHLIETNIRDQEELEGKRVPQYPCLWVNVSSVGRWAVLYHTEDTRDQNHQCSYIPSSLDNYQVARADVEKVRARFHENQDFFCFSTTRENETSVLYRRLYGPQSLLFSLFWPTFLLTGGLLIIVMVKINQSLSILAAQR
# Test name: Em-Assay: membrane potential with voltage sensitive dye DiBAC(4)3, fluorescence plate reader
# Format: cell-based
# Condition summary: compound 50 μM; NS004 25 or 50 μM; hSlo transfected CHO cells; change in DiBAC(4)3 fluorescence intensity
Property: Em effect: ratio of the compound effect compared to the maximal effect of NS004

In the examples that follow, each entry is paired with its recorded Em effect: ratio of the compound effect compared to the maximal effect of NS004.
Smiles repr	Value measured
Fc1ccc(CNc2cccc(NCc3ccc(F)cc3F)c2)c(F)c1	++ (>1-1.5 = ++)
FC(F)(F)c1cc(NCc2ccc(Br)cc2)cc(NCc2cccc(Cl)c2)c1	++ (>1-1.5 = ++)
Fc1ccc(CNc2cccc(NCc3csc4ccc(Cl)cc34)c2)c(Cl)c1	+ (0-1 = +)
FC(F)(F)c1cc(NCc2ccc(Br)cc2)cc(NCc2ccc(Br)cc2)c1	+ (0-1 = +)

Reported Em effect: ratio of the compound effect compared to the maximal effect of NS004 for Fc1cc(F)cc(CNc2cc(NCc3csc4ccc(Cl)cc34)cc(C(F)(F)F)c2)c1 was + (0-1 = +)

Reported Em effect: ratio of the compound effect compared to the maximal effect of NS004 for Clc1cccc(CNc2ccc(NCc3ccc4ccccc4c3)c(Cl)c2)c1 was + (0-1 = +)

Reported Em effect: ratio of the compound effect compared to the maximal effect of NS004 for Clc1cc(NCc2ccc(-c3csnn3)cc2)c(Cl)cc1NCc1ccc(-c2csnn2)cc1 was + (0-1 = +)
